# SYSTEM: Peroxisome proliferator-activated receptor delta (Homo sapiens, UniProt Q03181)
OBSERVED PROPERTY: pEC50
One number for each entry, as −log10 of the molar value.

As a guide, the following entries are already answered.
CCOC(Cc1ccc2c(ccn2Cc2nc(-c3ccccc3Cl)oc2C)c1)C(=O)O (stereo not given) :: 5.34
CCOC(Cc1ccc2c(ccn2Cc2nc(-c3ccc(C(C)C)cc3)oc2C)c1)C(=O)O (stereo not given) :: 5.60
CCOC(Cc1cccc2c1ccn2CCCc1nc(-c2ccccc2)oc1C)C(=O)O (stereo not given) :: 5.62
Cc1oc(-c2ccc(C(F)(F)F)cc2)nc1Cn1ccc2cc(CC(OC(C)C)C(=O)O)ccc21 (stereo not given) :: 5.66

Your task in this section: give pEC50 for each listed record.
1. CCOC(Cc1ccc2c(ccn2Cc2nc(-c3ccccc3)oc2C)c1)C(=O)O (stereo not given)
2. CCOC(Cc1ccc2c(ccn2Cc2nc(-c3ccccc3C)oc2C)c1)C(=O)O (stereo not given)
3. CCOC(Cc1ccc2c(c1)c(C)cn2Cc1nc(-c2ccc(C(F)(F)F)cc2)oc1C)C(=O)O (stereo not given)

**Result**
1. 5.08
2. 5.19
3. 5.22

---

For each of the compounds below, state its pEC50.
# SYSTEM: Peroxisome proliferator-activated receptor delta (Homo sapiens)
# Sequence (Q03181 whole entry): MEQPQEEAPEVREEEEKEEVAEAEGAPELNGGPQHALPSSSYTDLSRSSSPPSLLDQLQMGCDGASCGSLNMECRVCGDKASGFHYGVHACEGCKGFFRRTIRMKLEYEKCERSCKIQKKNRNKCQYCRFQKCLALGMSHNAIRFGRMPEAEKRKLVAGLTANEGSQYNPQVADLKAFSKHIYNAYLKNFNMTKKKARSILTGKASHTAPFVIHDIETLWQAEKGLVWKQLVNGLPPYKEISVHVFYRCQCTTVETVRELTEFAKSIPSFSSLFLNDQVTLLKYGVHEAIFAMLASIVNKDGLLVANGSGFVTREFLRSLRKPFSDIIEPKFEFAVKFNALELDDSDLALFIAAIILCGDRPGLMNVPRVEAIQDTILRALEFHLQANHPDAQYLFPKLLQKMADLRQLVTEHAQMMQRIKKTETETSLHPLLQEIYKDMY
pEC50: −log10 of the molar value.

Check out these entries, answers already filled in.
CCOC(Cc1ccc2c(ccn2Cc2nc(-c3ccc(F)cc3)oc2C)c1)C(=O)O (stereo not drawn) :: < 5.00
CCOC(Cc1ccc2c(ccn2Cc2nc(-c3ccccc3F)oc2C)c1)C(=O)O (stereo not drawn) :: < 5.00

Documented pEC50 of CCOC(Cc1ccc2c(ccn2Cc2nc(-c3ccccc3OC)oc2C)c1)C(=O)O (stereo not drawn) : < 5.00
